Target: MMP-13 (Homo sapiens, UniProt P45452)
Construct: made in house; host or cells: baculovirus / insect cells
Test: biochemical
Conditions: recombinant human MMP-13, MCA peptide substrate 4 μM, pH 7.5, room temperature; read-out: MMP-13 IC50
QUANTITY MEASURED: log10(IC50) (log10 of the value in nM)
Units before log transform: nM; reported quantity: IC50; transform: log10.

Observe how each entry below is paired with its result.
INSERT INTO assay_data (molecule, observed) VALUES
  ('O=C(c1ccc(C(F)(F)F)c(F)c1)C1CCN(c2ccc(S(=O)(=O)C3(C(=O)NO)CCOCC3)cc2)CC1', 1.34),
  ('O=C(NO)C1(S(=O)(=O)c2ccc(Oc3ccc(OC(F)(F)F)cc3)cc2)CCN(c2ccncc2)CC1', -1.00),
  ('O=C(NO)C1(S(=O)(=O)c2ccc(Oc3ccc(OC(F)(F)F)cc3)cc2)CCN(C(=S)NCCN2CCOCC2)CC1', -0.70),
  ('O=C(NO)C1(S(=O)(=O)c2ccc(Oc3ccc(OC(F)(F)F)cc3)cc2)CCN(Cc2cc(Cl)cc(Cl)c2)CC1', 1.22);

Query string: Request the reported log10(IC50) associated with `O=C(CCc1cnc[nH]1)N1CCC(C(=O)NO)(S(=O)(=O)c2ccc(Oc3ccc(OC(F)(F)F)cc3)cc2)CC1`
Result string: -1.00

Query string: Reported log10(IC50), molecule `CCCCC(=O)C1CCN(c2ccc(S(=O)(=O)C3(C(=O)NO)CCOCC3)cc2)CC1` : ____
Result string: 0.52

Query string: Which log10(IC50) reading was recorded for the molecule CC1CC(C)CN(C(=O)C2CCN(c3ccc(S(=O)(=O)C4(C(=O)NO)CCN(C(=O)CNCCCO)CC4)cc3)CC2)C1 (stereo not shown) ?
Result string: 1.95

###

Recorded measurements of pIC50, one per entry
Molecular target: MMP-2 (Homo sapiens, UniProt P08253)
Construct: made in house; provided by Dr. Gregory Goldberg, Washington University
Sequence (P08253 110-660): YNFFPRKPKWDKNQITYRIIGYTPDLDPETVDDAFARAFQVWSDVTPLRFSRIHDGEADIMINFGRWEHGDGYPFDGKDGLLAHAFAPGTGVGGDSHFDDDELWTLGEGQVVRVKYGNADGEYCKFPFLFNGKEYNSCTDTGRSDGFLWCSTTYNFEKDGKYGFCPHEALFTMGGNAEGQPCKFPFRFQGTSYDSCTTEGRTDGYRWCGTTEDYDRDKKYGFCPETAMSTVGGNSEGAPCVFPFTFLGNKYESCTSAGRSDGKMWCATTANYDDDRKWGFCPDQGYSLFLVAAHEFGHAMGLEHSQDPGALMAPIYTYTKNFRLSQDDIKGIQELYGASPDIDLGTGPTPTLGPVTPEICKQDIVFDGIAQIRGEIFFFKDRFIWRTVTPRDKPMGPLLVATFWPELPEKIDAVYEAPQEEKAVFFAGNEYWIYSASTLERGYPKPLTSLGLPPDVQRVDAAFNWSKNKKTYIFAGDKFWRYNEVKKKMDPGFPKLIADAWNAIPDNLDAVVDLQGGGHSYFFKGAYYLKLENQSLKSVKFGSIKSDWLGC
Assay: biochemical
Conditions: read-out: MMP-2 IC50
Give only the number. pIC50 is defined as minus log10 of concentration in molar units.

Some compounds with known pIC50 results, for comparison:
INSERT INTO results (compound, observed) VALUES
  ('O=C(C1CCN(c2ccc(S(=O)(=O)C3(C(=O)NO)CCOCC3)cc2)CC1)N1CCN(c2ncc(C(F)(F)F)cc2Cl)CC1', 5.27),
  ('O=C(C1CCN(c2ccc(S(=O)(=O)C3(C(=O)NO)CCOCC3)cc2)CC1)N1CCN(c2ccc(C(F)(F)F)cc2)CC1', 5.22),
  ('O=C(C1CCN(c2ccc(S(=O)(=O)C3(C(=O)NO)CCOCC3)cc2)CC1)N1CCN(c2ncccc2C(F)(F)F)CC1', 5.35);

Now turn to the next compound.
Query string: Could you tell me which pIC50 is on file for `O=C(C1CCN(c2ccc(S(=O)(=O)C3(C(=O)NO)CCOCC3)cc2)CC1)N1CCN(c2ccccn2)CC1` ?
Result string: 5.44
